Exercise: state measured IC50 for each of the compounds provided.
assayed-target: Inhibitor of nuclear factor kappa-B kinase subunit beta (Homo sapiens, UniProt O14920)
Sequence (O14920 whole entry): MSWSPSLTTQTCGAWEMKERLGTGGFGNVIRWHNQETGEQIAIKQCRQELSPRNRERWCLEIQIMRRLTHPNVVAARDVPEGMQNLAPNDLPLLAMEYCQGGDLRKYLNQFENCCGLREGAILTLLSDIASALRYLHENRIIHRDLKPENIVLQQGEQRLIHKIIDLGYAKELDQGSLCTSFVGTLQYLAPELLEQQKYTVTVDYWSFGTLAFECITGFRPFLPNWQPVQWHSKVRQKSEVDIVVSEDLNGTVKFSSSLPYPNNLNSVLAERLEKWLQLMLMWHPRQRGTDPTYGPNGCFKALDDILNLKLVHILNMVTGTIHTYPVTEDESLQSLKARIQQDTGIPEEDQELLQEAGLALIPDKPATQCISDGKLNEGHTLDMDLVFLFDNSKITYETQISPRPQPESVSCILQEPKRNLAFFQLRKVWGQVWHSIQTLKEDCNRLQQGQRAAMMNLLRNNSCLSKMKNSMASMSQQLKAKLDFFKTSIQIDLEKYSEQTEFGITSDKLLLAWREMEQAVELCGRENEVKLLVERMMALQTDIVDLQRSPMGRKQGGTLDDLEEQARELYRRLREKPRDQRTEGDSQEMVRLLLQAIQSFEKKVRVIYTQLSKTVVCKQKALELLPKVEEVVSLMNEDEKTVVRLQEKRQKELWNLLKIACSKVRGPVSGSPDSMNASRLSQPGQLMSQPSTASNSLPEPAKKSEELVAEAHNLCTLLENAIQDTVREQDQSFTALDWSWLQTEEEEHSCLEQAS
assay-notes: Inhibition of human recombinant C-terminal FLAG-epitope-tagged IKK2 expressed in baculovirus using biotinylated IkappaBalpha peptide as substrate assessed as decrease in [gamma-33P]-ATP incorporation in substrate after 30 mins by scintillation counting method

Could you share which IC50 value was measured for COCC(=O)Nc1ccc2c(c1)-c1c(c(C(N)=O)nn1-c1ccc(S(N)(=O)=O)cc1)CC2 ? 1 to 10 µM

Which IC50 is reported for this compound? NC(=O)c1nn(-c2ccc(C(F)(F)F)cc2)c2c1CCc1ccc(NC(=O)c3ccccc3Cl)cc1-2 1 to 10 µM

Requested field: IC50. Item: NC(=O)c1nn(-c2ccc(O)cc2)c2c1CCc1ccc(NC(=O)c3cc([N+](=O)[O-])ccc3Cl)cc1-2 ≤ 1 µM

Consider the compound shown here: NC(=O)c1nn(-c2ccc(S(N)(=O)=O)cc2)c2c1CCc1ccc(NS(=O)(=O)c3ccc4cccnc4c3)cc1-2 What is its recorded IC50? > 100 µM

I'd like to know its IC50. The compound in question is NC(=O)c1nn(-c2ccc(S(=O)(=O)C(F)(F)F)cc2)c2c1CCc1ccc(N)cc1-2 1 to 10 µM

May I ask what IC50 has been recorded for Cc1nc(S(=O)(=O)Nc2ccc3c(c2)-c2c(c(C(N)=O)nn2-c2ccc(S(N)(=O)=O)cc2)CC3)cn1C ? 10 to 100 µM

Name the reported IC50 value associated with the compound NC(=O)c1nn(-c2ccc(S(N)(=O)=O)cc2)c2c1CCc1ccc(NS(=O)(=O)c3ccc(Br)cc3F)cc1-2 1 to 10 µM

Fill blank: measured IC50 of the compound NC(=O)c1nn(-c2ccc(OCC(O)CO)cc2)c2c1CCc1ccc(NC(=O)c3ccncc3Cl)cc1-2 (stereo not drawn) is ____. ≤ 1 µM

Which IC50 value is on record for CN1CCN(c2cc(C(=O)Nc3ccc4c(c3)-c3c(c(C(N)=O)nn3-c3ccc(F)cc3)CC4)c(Cl)cn2)CC1 ? ≤ 1 µM

Could you tell me which IC50 is on file for COc1ccc(-c2ccc(-n3nc(C(N)=O)c4c3-c3cc(NC(=O)c5ccccc5Cl)ccc3CC4)cc2)cc1OC ? 1 to 10 µM

Looking for the measured IC50 of NC(=O)c1nn(-c2ccc(S(N)(=O)=O)cc2)c2c1CCc1ccc(NS(=O)(=O)c3ccc(Cl)c(Cl)c3)cc1-2 , can you help? 1 to 10 µM

For the compound shown here, CCCS(=O)(=O)c1ccc(-n2nc(C(N)=O)c3c2-c2cc(NC(=O)c4cc(N)ccc4Cl)ccc2CC3)cc1 , give the reported IC50. ≤ 1 µM

GET /values?readout=IC50&item= CN(C)CCNS(=O)(=O)c1ccc(-n2nc(C(N)=O)c3c2-c2cc(N)ccc2CC3)cc1 1 to 10 µM

Requested field: IC50. Item: Cc1ncccc1C(=O)Nc1ccc2c(c1)-c1c(c(C(N)=O)nn1-c1ccc3c(c1)OCO3)CC2 1 to 10 µM

I'd like to know its IC50. The compound in question is CCS(=O)(=O)Nc1ccc2c(c1)-c1c(c(C(N)=O)nn1-c1ccc(S(N)(=O)=O)cc1)CC2 ≤ 1 µM

# input compound: NCc1cc(C(=O)Nc2ccc3c(c2)-c2c(c(C(N)=O)nn2-c2ccc4c(c2)OCO4)CC3)c(Cl)cn1 ; wanted: its IC50 ≤ 1 µM

Looking for the measured IC50 of CCN1CCN(c2cc(C(=O)Nc3ccc4c(c3)-c3c(c(C(N)=O)nn3-c3ccc(F)cc3)CC4)c(Cl)cn2)CC1 , can you help? ≤ 1 µM

Quick one: IC50 of C[S+]([O-])c1ccc(Cl)c(C(=O)Nc2ccc3c(c2)-c2c(c(C(N)=O)nn2-c2ccc4c(c2)OCO4)CC3)c1 (stereo not drawn) ? ≤ 1 µM

// lookup IC50 for NC(=O)c1nn(-c2ccc(Cl)cc2)c2c1CCc1ccc(NC(=O)c3cnccc3Cl)cc1-2 ≤ 1 µM

Entry under review: NC(=O)c1nn(-c2ccc(S(N)(=O)=O)cc2)c2c1CCc1ccc(NS(=O)(=O)c3cccc(Cl)c3)cc1-2 . Reported IC50? 1 to 10 µM

Quick one: IC50 for NC(=O)c1nn(-c2ccc(S(N)(=O)=O)cc2)c2c1CCc1ccc(NC(=O)c3ccco3)cc1-2 ? 10 to 100 µM

I'd like to know its IC50. The compound in question is COc1ccc(C(=O)Nc2ccc3c(c2)-c2c(c(C(N)=O)nn2-c2ccc(S(N)(=O)=O)cc2)CC3)cc1 ≤ 1 µM

# get_value(readout='IC50', item= NC(=O)c1nn(-c2ccc(F)cc2)c2c1CCc1ccc(NC(=O)c3cc(N4CCCNCC4)ncc3Cl)cc1-2 ) ≤ 1 µM

Please report the recorded IC50 for NC(=O)c1nn(-c2ccc(S(N)(=O)=O)cc2)c2c1CCc1ccc(NC(=O)C3CCCCC3)cc1-2 . 1 to 10 µM

# lookup: IC50 of C[S+]([O-])c1ccc(-n2nc(C(N)=O)c3c2-c2cc(NC(=O)c4ccccc4Cl)ccc2CC3)cc1 (stereo not drawn) ≤ 1 µM

Need IC50 of CC1Cc2c(C(N)=O)nn(-c3ccc(F)cc3F)c2-c2cc(NC(=O)c3ccncc3Cl)ccc21 (stereo not drawn) , thanks. ≤ 1 µM

I'd like to know its IC50. The compound in question is CC(=O)Nc1ccc2c(c1)-c1c(c(C(N)=O)nn1-c1ccc(S(N)(=O)=O)cc1)CC2 10 to 100 µM

Which IC50 is reported for this compound? CCCS(=O)(=O)c1ccc(-n2nc(C(N)=O)c3c2-c2cc(NC(=O)c4cc(NC(=O)OC(C)(C)C)ccc4Cl)ccc2CC3)cc1 1 to 10 µM

Can you look up the measured IC50 of NC(=O)c1nn(-c2ccc(F)cc2)c2c1CCc1ccc(NC(=O)c3cc(Cl)ncc3Cl)cc1-2 for me? ≤ 1 µM

Data request, read-out IC50, for NC(=O)c1nn(-c2cc(F)cc(F)c2)c2c1CCc1ccc(NC(=O)c3cccc(Cl)c3Cl)cc1-2 1 to 10 µM

Given NC(=O)c1nn(-c2ccc(S(N)(=O)=O)cc2)c2c1CCc1ccc(NS(=O)(=O)Cc3ccccc3)cc1-2 , state its recorded IC50. 1 to 10 µM

Which IC50 is reported for this compound? NC(=O)c1nn(-c2ccc(S(N)(=O)=O)cc2)c2c1CCc1ccc(NS(=O)(=O)c3cccc4nonc34)cc1-2 1 to 10 µM

Query (compound): NC(=O)c1nn(-c2ccc(S(N)(=O)=O)cc2)c2c1CCc1ccc(NC(=O)C3CCC3)cc1-2 ; field requested: IC50 1 to 10 µM
